System: SK-N-SH human neuroblastoma cells
experimentalDetails: Serum Deprivation/JC-1 Mitochondrial Membrane Potential (MMP) Assay
Format: cell-based
conditionDescription: Homo sapiens, single dose 3 μM, JC-1 ratio normalized to peak value for 10 μM dimebolin (n=2-4), serum deprivation, read-out: JC-1 max % (@ 3 μM)
Respond with Criterion met for activation at 3 µM values of 80% and above, Criterion not met for values below.

>  <compound>
CCCN(C)C(=O)N1Cc2ccccc2N2CCN(Cc3ccccc3)CC2C1 (centres unmarked)

>  <cat>
Criterion met

$$$$
>  <compound>
O=C(CCN1CCCCC1)N1Cc2ccccc2N2CCN(Cc3ccccc3)CC2C1 (centres unmarked)

>  <cat>
Criterion met

$$$$
>  <compound>
COCCNC(=O)N1Cc2ccccc2N2CCN(Cc3ccccc3)CC2C1 (centres unmarked)

>  <cat>
Criterion not met

$$$$
>  <compound>
O=C(C1CCOC1)N1Cc2ccccc2N2CCN(Cc3ccccc3)CC2C1 (centres unmarked)

>  <cat>
Criterion not met

$$$$

Ask: Answer whether activation at 3 µM of CN1CCN2c3ccccc3CN(C3CCN(C(=O)c4ccccc4)CC3)CC2C1 (centres unmarked) is greater than or equal to 80%.
Reply: Criterion not met

Ask: Answer whether activation at 3 µM of O=C(C1CCCO1)N1Cc2ccccc2N2CCN(Cc3ccccc3)CC2C1 (centres unmarked) is greater than or equal to 80%.
Reply: Criterion met

Ask: Answer whether activation at 3 µM of O=C(NCc1ccncc1)N1Cc2ccccc2N2CCN(Cc3ccccc3)CC2C1 (centres unmarked) is greater than or equal to 80%.
Reply: Criterion not met

Ask: Answer whether activation at 3 µM of O=C(CN1CCOCC1)N1Cc2ccccc2N2CCN(Cc3ccccc3)CC2C1 (centres unmarked) is greater than or equal to 80%.
Reply: Criterion met

Ask: Answer whether activation at 3 µM of Cc1cnc(C(=O)N2Cc3ccccc3N3CCN(Cc4ccccc4)CC3C2)cn1 (centres unmarked) is greater than or equal to 80%.
Reply: Criterion met

Ask: Answer whether activation at 3 µM of Cc1cc(CN2Cc3ccccc3N3CCN(Cc4ccccc4)CC3C2)oc1C (centres unmarked) is greater than or equal to 80%.
Reply: Criterion not met
